B1: tRNA (parent)
chain: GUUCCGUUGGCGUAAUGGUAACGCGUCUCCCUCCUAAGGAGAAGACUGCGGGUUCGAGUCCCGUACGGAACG

Variants of: B1
Assay: yeast fitness relative to wild type (ratio to wild type); higher = fitter; tRNA-Arg(CCU), competitive growth, 37 C, YPD
Fewer inactive variants are shown than the library holds.

>  <sequence code>
GUUGCGUUGGCGUAAUGGUAACGCGUCUCCAUGCUAAGGAGAAGACUGCGCGUUCGAGUGCCGUACGGAACG [C4G C31A C33G G51C C60G]

>  <yeast fitness>
≤ 0.5

$$$$
>  <sequence code>
GUUCCGUUGGCGUAAAGGUAACGCGUCUCCCUCCUAAGGAGAAGACUGCGGGUUUGCGUCCCGUACGGAACG [U16A C55U A57C]

>  <yeast fitness>
≤ 0.5

$$$$
>  <sequence code>
GUUGCGUUGGCGUAAUAGUAACGCGUCUCCCUCCUAAGGAGAAGACUGCGGGUUCGAGUCCCAUAUGGAACG [C4G G17A G63A C66U]

>  <yeast fitness>
≤ 0.5

$$$$
>  <sequence code>
GUUCCGUUGGCGUCAUGGUAAUGCGUCUCCCUCCUAAGGAGAAGACUGCGGGUUCGAGUCCCGUACGGAGCG [A14C C22U A70G]

>  <yeast fitness>
≤ 0.5

$$$$
>  <sequence code>
GUUCCGUUGGCGUAAUGGUAACGCGUCCCCCUCCUAAGGUGAAGACUGCGGGUUAGAGUCCCGUACGGAACG [U28C A40U C55A]

>  <yeast fitness>
≤ 0.5

$$$$
>  <sequence code>
GUUCUGUUGGCGUAAUGGUAAUGCGUCUCCCUCCUAAGGAGAAGACUGCGGACUCGAGGCGUGUACGGAACG [C5U C22U G52A U53C U59G C61G C62U]

>  <yeast fitness>
≤ 0.5

$$$$
>  <sequence code>
GUUCCAUUGGCGUAAUGGUAAGGCGUCUCCCUCCUAAGGAGAAGACUGCGGGUUCGCGUCCCGUAAGGAACG [G6A C22G A57C C66A]

>  <yeast fitness>
≤ 0.5

$$$$
>  <sequence code>
GUUCCGUUAGCGUAAUGGUAACGCGUCUCCCUCUUAAGGAGAAGAAUGCGGGUUCGAGUCCUGUACGGAACG [G9A C34U C46A C62U]

>  <yeast fitness>
0.546

$$$$
>  <sequence code>
GUUCGGUUGGCGUAAUGGUAACGCGUCUCGCUCCUAAGGAGAAGACUGCGGGUUCCAGUCUCGUCCGGAACG [C5G C30G G56C C61U A65C]

>  <yeast fitness>
0.616

$$$$
>  <sequence code>
GUUCCGUUGGCGUAAUGGUAACGCGUCUCCCUCCUAAGGAGAUGACUGCGGGUUCGAGUCCCGUGCGGAACG [A43U A65G]

>  <yeast fitness>
1.01

$$$$
>  <sequence code>
GUUCCGUUGGCGUCAUGGUAACGUGUCUCCCUCCUAAGGUGAAGACUGCGGGUUGGAGUCCCGUACGGAACG [A14C C24U A40U C55G]

>  <yeast fitness>
≤ 0.5

$$$$
>  <sequence code>
GUUCCGUUGGCGUAAUGGUAACCCGUCUCCCUCCUAAGGAGAAGACUGCGGGUUCGAGUCCCGUACGUAACG [G23C G68U]

>  <yeast fitness>
0.64

$$$$
>  <sequence code>
GUUCCAUUGGCCUAACGGUAUCGCGUCUCCCUCCUAAGGAGAAGACUGCGGGUUCGAGUCCCCUACAGAACG [G6A G12C U16C A21U G63C G67A]

>  <yeast fitness>
≤ 0.5

$$$$
>  <sequence code>
GUUCCGUUGACGUAAUGGUAACGCGUCUCCCUCCUAAGGAGAAGGCUGCGGGUUCGAGUCCCGUACGGAACG [G10A A45G]

>  <yeast fitness>
0.839

$$$$
>  <sequence code>
GUUCCGUUGGCCUAAUGGUAACGCGUCUCCCUCCUAAAGAGAAGACUGCGGGUUCGAGUCCCGUACGGAACG [G12C G38A]

>  <yeast fitness>
0.687

$$$$
>  <sequence code>
GUUCCGUUGGCGUAAUGGUAACGCGUCUCCCUCAUAAGGAGAAAACUGCGGAUUUGAGUCCCGUACGGAACG [C34A G44A G52A C55U]

>  <yeast fitness>
0.53

$$$$
>  <sequence code>
GUUCCGUUGGCAUAAUGGUAACGCGUCUCCCUCCUAACGAGAAGACUGUGGGUUCGAGUCCUGUACGGUACG [G12A G38C C49U C62U A69U]

>  <yeast fitness>
0.973

$$$$
>  <sequence code>
GUUCCGUUGGCGUAAGGGUAUCGCGUCUCCCUCGUAAGGUGAAGACUGCGGGUUCGAGUCCCGUACGGAACG [U16G A21U C34G A40U]

>  <yeast fitness>
0.624

$$$$
>  <sequence code>
GUUCCGUUGGCGUAAUGGUAACGCGUCGCCCUCCUAAGGAGAAGACUGUGGGUUCGAGUCCCGUACGGUACG [U28G C49U A69U]

>  <yeast fitness>
0.804

$$$$
>  <sequence code>
GUUCCGUUGGCGUAAUGGUAACGCGUCUCCCUCCUAAGGUGAACACUGCGGGGUCGAGUCCCGUACGGAACG [A40U G44C U53G]

>  <yeast fitness>
≤ 0.5

$$$$
>  <sequence code>
GUUCCGUUGGCGUAAUGGCAACGCGUCUCCCUCCUAAGGAGUAGAUUGCGGGUUGGAGUCCCCUACGGAACG [U19C A42U C46U C55G G63C]

>  <yeast fitness>
≤ 0.5

$$$$
>  <sequence code>
GUUCCGUUGGCGUAAUGGUAACGCGACACCUUCCUAAGGAGAAGACUGCGGGUUCAAGUCCCGUAGGGAACG [U26A U28A C31U G56A C66G]

>  <yeast fitness>
≤ 0.5

$$$$
>  <sequence code>
GUUACGUUGGCGUAAUGGUAACGCGUCUCCGUCCUAAGGAGAAGAUUGCGGGUUCGAGUCCCGUACGGAACG [C4A C31G C46U]

>  <yeast fitness>
0.677

$$$$
>  <sequence code>
GUUCCGUUGGCGUAAUGGUAACGCGUCUCCGUCGUAAGGAGCAGACUGCGGGUUCGAGUCCCGUAGGGAACG [C31G C34G A42C C66G]

>  <yeast fitness>
≤ 0.5

$$$$
>  <sequence code>
GUUCCGUUGGCGUAAUGGUAACGCGUCUCCCUCCUACGGAGAAGACUGCGGGUUCCAGUCCCGUACGGAACG [A37C G56C]

>  <yeast fitness>
0.6

$$$$
>  <sequence code>
GUUCCGUUGGCGUAAUGGUAACGUGUCUCCCUCCUCAGGAGAUGACUGCGGGUUCGAGUCUCGUACGGAACG [C24U A36C A43U C61U]

>  <yeast fitness>
≤ 0.5

$$$$
>  <sequence code>
GUUCCGUUGCCGUAAUGGUAACGCGUCUCCCUCCUAAGGAGAAGACUGCGGGUCCAAGUCCCGUACGGAACG [G10C U54C G56A]

>  <yeast fitness>
≤ 0.5

$$$$
>  <sequence code>
GUUGCGUUGGCGUAAUGGUAACGCGAUUCCCUCCUAAGGAGAGGACUGCGGGUUUGAGUCCCGUAUGGAACG [C4G U26A C27U A43G C55U C66U]

>  <yeast fitness>
≤ 0.5

$$$$
>  <sequence code>
GUUCCGUUCGCGUGAUGGUAACGCGUCUCCCUCCUAAGGAGAAAACUGCGGGCUCGAGUCCCGUACGGAUCG [G9C A14G G44A U53C A70U]

>  <yeast fitness>
≤ 0.5

$$$$
>  <sequence code>
GUUCCGUUGGCGUAAUGGUAACGCGUCUCCCUCCUAAGGAGAAGACUGCGGGUUCCAGUCCCGUACGGCUCG [G56C A69C A70U]

>  <yeast fitness>
0.605

$$$$
>  <sequence code>
GUUCCCUUGGCGUAAUGGUAACGCGUCUCCCUCCUCAGGAGAAGACUGCGGGUUCGAGUCCCGAACGGAACG [G6C A36C U64A]

>  <yeast fitness>
0.539

$$$$
>  <sequence code>
GUUCAGUUGGCGUAAUGGUAACGCGUCUCCCUCCUUAGGAGAAGACUGCGGGUUCGAGUCCCGUACGGAACG [C5A A36U]

>  <yeast fitness>
0.678

$$$$
>  <sequence code>
GUUCCGUUGGCGUAAUGGUAACGCGCCUCCCUCCUCAGGAGAAGGCUGCGGGUCCGAGUCCCGUACGGAACG [U26C A36C A45G U54C]

>  <yeast fitness>
≤ 0.5

$$$$
>  <sequence code>
GUUCCGUUGGCGUAAUGGUAACGCGUCCCCCUCCUAAGGAGAAGACUGCGGCUUCGAGUCCCGUCCGGAACG [U28C G52C A65C]

>  <yeast fitness>
0.596

$$$$
>  <sequence code>
GUUCAGUUGGCGUAAUGGUAACGCGACUCCCUCCUAAGGGGAAGACUGCGGGUUCGACUCCCGUACUGAACG [C5A U26A A40G G58C G67U]

>  <yeast fitness>
0.56

$$$$
>  <sequence code>
GUACCGUUGGCGUAAUGGUAACGCGUCUCGUUCCUAAGGAGAAGACUGCGGGUUCGAGUCCCGUACGGAACG [U3A C30G C31U]

>  <yeast fitness>
≤ 0.5

$$$$
>  <sequence code>
GUUCCGUUGGCGUAAUGGUAAGGCGUCUCGCUGCUAUGGAGAAGACUGCGGGUUCGAGUCGCGUACGGAACG [C22G C30G C33G A37U C61G]

>  <yeast fitness>
0.683

$$$$
>  <sequence code>
GUUCCGUUGGAGUAAUGGUAAGGCGUCUGCCUCCUAAGGAGAAGACUGCGGGUUCGAGUCCUGUACGGAACG [C11A C22G C29G C62U]

>  <yeast fitness>
0.57

$$$$
>  <sequence code>
GUUCCGUUGGCGUAAUGGUAACGGGUCUCCCUCCUUAGGAGUAGACUGGGGGAUCGAAUACCGUACGGAACG [C24G A36U A42U C49G U53A G58A C60A]

>  <yeast fitness>
≤ 0.5

$$$$
>  <sequence code>
GUUCGGUUGGCGUAAUAGUAACGCGCCUCCCUCCUAAGGAGAAGACUGCGGGUUCGAGUCCCGUACGGAACG [C5G G17A U26C]

>  <yeast fitness>
≤ 0.5

$$$$
>  <sequence code>
GUUCCGUUGGCGUCAUGGUAACGCGUCUCCCUCCCAAGGAGAAGACUGCGGGUUCGAGUCCCGUACGGUACG [A14C U35C A69U]

>  <yeast fitness>
≤ 0.5

$$$$
